target: Amine oxidase [flavin-containing] A (Homo sapiens); test: Inhibition of human recombinant MAOA using kynuramine as substrate preincubated for 10 mins followed by substrate addition at 10 secs intervals measured after 20 mins by fluorescence assay
Sequence (P21397 whole entry): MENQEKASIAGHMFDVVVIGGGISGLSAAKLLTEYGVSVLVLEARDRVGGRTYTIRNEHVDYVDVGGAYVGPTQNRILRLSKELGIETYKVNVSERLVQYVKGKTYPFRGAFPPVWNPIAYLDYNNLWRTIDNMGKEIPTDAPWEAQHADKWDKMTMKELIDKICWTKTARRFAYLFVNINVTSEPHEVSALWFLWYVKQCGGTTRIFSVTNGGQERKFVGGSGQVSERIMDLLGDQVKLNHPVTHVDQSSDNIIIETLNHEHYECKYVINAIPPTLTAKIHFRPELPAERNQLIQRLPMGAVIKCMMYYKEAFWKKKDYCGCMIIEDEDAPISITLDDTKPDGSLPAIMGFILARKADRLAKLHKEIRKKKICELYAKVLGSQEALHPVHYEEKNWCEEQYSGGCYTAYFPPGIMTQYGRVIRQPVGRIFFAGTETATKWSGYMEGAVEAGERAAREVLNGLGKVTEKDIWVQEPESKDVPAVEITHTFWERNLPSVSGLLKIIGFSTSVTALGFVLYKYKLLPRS
recorded_metric: pIC50
One number for each entry, as −log10 of the molar value.

Use these answered entries as a reference point.
smiles_input=CCN(CC)C(=O)Oc1ccc2cc[nH]c2c1 assay_system="Amine oxidase [flavin-containing] A (Homo sapiens)" measured=4.05
smiles_input=C#CCn1ccc2ccc(NC(=O)N(CC)CC)cc21 assay_system="Amine oxidase [flavin-containing] A (Homo sapiens)" measured=5.37
smiles_input=C#CCn1ccc2ccc(OC(=O)N(CC)CC)cc21 assay_system="Amine oxidase [flavin-containing] A (Homo sapiens)" measured=4.29
smiles_input=CCN(CC)C(=O)Nc1ccc2cc[nH]c2c1 assay_system="Amine oxidase [flavin-containing] A (Homo sapiens)" measured=4.69
smiles_input=C#CCn1ccc2cc(OC(=O)N(CC)CC)ccc21 assay_system="Amine oxidase [flavin-containing] A (Homo sapiens)" measured=4.00
smiles_input=C#CCn1ccc2cc(NC(=O)N(CC)CC)ccc21 assay_system="Amine oxidase [flavin-containing] A (Homo sapiens)" measured=4.48

Give the reported pIC50 for CCN(CC)C(=O)Oc1ccc2[nH]ccc2c1 (system: Amine oxidase [flavin-containing] A (Homo sapiens)). 4.88
